biological target: Grb2 SH2 (UniProt P62993); test: SH2 binding enrichment of the phosphorylated peptide, bacterial display (enrichment ratio); higher = better substrate or ligand; peptides without Tyr show the background;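 further: peptide library displayed on the E. coli surface as eCPX fusions, selected cells deep-sequenced, score is each peptide's frequency after selection divided by its frequency in the input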
Sequence (P62993 whole entry, looked up, the tested form may be a part): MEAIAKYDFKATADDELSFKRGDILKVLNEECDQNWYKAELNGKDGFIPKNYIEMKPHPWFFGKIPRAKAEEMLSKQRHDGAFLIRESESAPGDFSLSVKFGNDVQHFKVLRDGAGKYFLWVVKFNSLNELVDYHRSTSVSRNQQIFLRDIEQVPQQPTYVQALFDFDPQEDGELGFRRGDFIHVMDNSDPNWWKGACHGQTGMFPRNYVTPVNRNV
Please enter y where SH2 binding enrichment is greater than or equal to 0.9, and n where it is lower.

Worked set:
{"construct sequence": "FAELVYTGFWH [ASS1_Y322]", "classification": "n"}
{"construct sequence": "AEQEEYSAMRD [NRAS_Y64_G60E]", "classification": "y"}
{"construct sequence": "RLMLQYDAVVN [SLC25A32_Y152]", "classification": "y"}
{"construct sequence": "KNEKVYTRHGV [FLOT1_Y56_S52N]", "classification": "y"}

Decide: is the reported value of SH2 binding enrichment for RQQQDYWLIDV [ANPEP_Y600] equal to or greater than 0.9? y

Exam item: decide whether the reported SH2 binding enrichment for AHPIIYDIIEA [PYKtide_D_2014] is at least 0.9. n

Does the sequence PEADKYRLPYA [FGG_Y300_T303P] have recorded SH2 binding enrichment that is 0.9 or more? n

SH2 binding enrichment >= 0.9 for IHRWVYPLTPE [EIF2B5_Y319_R315H] ? y

State whether the measured SH2 binding enrichment reaches 0.9, counting equality as reaching it, for LFMGDYVDRGY [PPP2CA_Y86] n

Record TAIFIYIRPKA [OR10C1_Y258_L255I] ; criterion: SH2 binding enrichment no lower than 0.9. Met? y

Textbook exercise: given the entry HRGFLYLAIEF [TEK_Y899_Y897F_YF] , state whether its SH2 binding enrichment is greater than or equal to 0.9. y

Determine whether measured SH2 binding enrichment meets or exceeds 0.9 for LGGAMYYLEAD [PKHD1_Y452_E457D] n

In plain terms: is recorded SH2 binding enrichment at least 0.9 for DAVKHYMQFRK [CNGA2_Y395] ? n

Dear colleague, could you confirm whether QEGPEYWDRNT [HLA-B_Y83] has SH2 binding enrichment at or above 0.9? n

Please check the record LENSTYQYIHV [CRB1_Y760_R764H] and state if its SH2 binding enrichment is at or above 0.9. y

Tell me whether SH2 binding enrichment is at least 0.9 here: SELVRYDARVH [MET_Y971] n

Check if SH2 binding enrichment >= 0.9 (inclusive). Item: NRVEIYEKTVE [CYFIP1_Y108] n
